Recorded values, source patent US20210309732A1.

Record form. Attribute: pKd. Fill in for each entry.
Biological target: T1, recombinant human GM-CSF (human, UniProt P04141 18-144)
T1 construct: also called rhGM-CSF; CSF2
T1 sequence (P04141 18-144 limits assumed): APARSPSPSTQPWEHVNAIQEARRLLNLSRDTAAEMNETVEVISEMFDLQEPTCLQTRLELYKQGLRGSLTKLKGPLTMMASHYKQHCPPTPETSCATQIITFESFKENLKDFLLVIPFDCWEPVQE
Assay: Gator, Coating Ag
Would you please state pKd, meaning minus log10 of the concentration in mol/L, as a bare number?

In: Find the recorded pKd belonging to antibody 1D2 (antibody, V domains shown, also called 1D2-WT; WT) VH: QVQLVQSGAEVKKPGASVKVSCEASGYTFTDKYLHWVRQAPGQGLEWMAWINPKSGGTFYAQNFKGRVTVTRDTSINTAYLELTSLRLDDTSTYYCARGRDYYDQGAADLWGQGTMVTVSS VL: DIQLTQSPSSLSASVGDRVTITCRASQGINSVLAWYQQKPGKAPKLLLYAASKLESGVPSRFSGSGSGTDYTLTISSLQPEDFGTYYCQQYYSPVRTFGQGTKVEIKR and report it.
Out: 10.75

In: Find the recorded pKd belonging to 1D2 SDR mutant Y103N/V32R (antibody, IgG1, V domains shown) VH: QVQLVQSGAEVKKPGASVKVSCEASGYTFTDKYLHWVRQAPGQGLEWMAWINPKSGGTFYAQNFKGRVTVTRDTSINTAYLELTSLRLDDTSTYYCARGRDYNDQGAADLWGQGTMVTVSS VL: DIQLTQSPSSLSASVGDRVTITCRASQGINSRLAWYQQKPGKAPKLLLYAASKLESGVPSRFSGSGSGTDYTLTISSLQPEDFGTYYCQQYYSPVRTFGQGTKVEIKR and report it.
Out: 10.70

In: Find the recorded pKd belonging to 1D2 SDR mutant K54G/V32R (antibody, IgG1, V domains shown, also called 54G/32R) VH: QVQLVQSGAEVKKPGASVKVSCEASGYTFTDKYLHWVRQAPGQGLEWMAWINPGSGGTFYAQNFKGRVTVTRDTSINTAYLELTSLRLDDTSTYYCARGRDYYDQGAADLWGQGTMVTVSS VL: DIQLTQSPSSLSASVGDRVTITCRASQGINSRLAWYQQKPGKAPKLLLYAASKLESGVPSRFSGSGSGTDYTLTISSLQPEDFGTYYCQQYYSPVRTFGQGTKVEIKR and report it.
Out: 10.65

In: Find the recorded pKd belonging to 1D2 SDR mutant Y103R/V32R (antibody, IgG1, V domains shown) VH: QVQLVQSGAEVKKPGASVKVSCEASGYTFTDKYLHWVRQAPGQGLEWMAWINPKSGGTFYAQNFKGRVTVTRDTSINTAYLELTSLRLDDTSTYYCARGRDYRDQGAADLWGQGTMVTVSS VL: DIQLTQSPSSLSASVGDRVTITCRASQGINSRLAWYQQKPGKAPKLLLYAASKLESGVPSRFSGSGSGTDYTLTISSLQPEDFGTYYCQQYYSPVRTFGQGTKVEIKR and report it.
Out: 10.51
